Task for the reader: assign each of the following compounds its reported inhibition.
# TEST SUMMARY: M. tuberculosis growth inhibition, HTS (AID 449762);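 note: bacterial growth assessed after seven days of incubation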
# RUN CONDITIONS: M. tuberculosis H37Rv growth inhibition, 7H9 media; at 25 µM; hits give high values
The whole screen tested about 330,000 compounds, of which about 1,900 (0.58%) were called active. Inconclusive results (about 4%) are left out. Not all results are given here. Potency and affinity values are given separately.
Just the number in %, nothing appended.

Answer with the recorded inhibition of CC(=O)NC12CC3CC(C1)CC(C(=O)Nc1nccs1)(C3)C2 only.
-0.32

Answer with the recorded inhibition of COc1ccc(/C=C/C(=O)c2oc3ccc(F)cc3c2C)cc1 only.
10.9

Answer with the recorded inhibition of O=C(Nc1ccc2oc(-c3cccc4ccccc34)nc2c1)c1ncn[nH]1 only.
9.87

Answer with the recorded inhibition of Oc1ccc(CCNc2c3ccccc3nc3ccccc23)cc1O only.
-2.38

Answer with the recorded inhibition of COc1ccc(CCNC(=O)c2cc(C(C)C)on2)cc1OC only.
-0.84

Answer with the recorded inhibition of COc1ccccc1NS(=O)(=O)c1cc(C(=O)NCCC(C)C)ccc1F only.
16.6

Answer with the recorded inhibition of O=C(NC(=S)N1CCCCC1)c1cccs1 only.
4.84

Answer with the recorded inhibition of C/C(=N\Nc1cc(Cl)nc(C)n1)c1ccc(C)cc1 only.
66.8

Answer with the recorded inhibition of Cc1nc(SCC(=O)NCC2CCCO2)c2c(C)c(C)sc2n1 (stereo not given) only.
-15.3

Answer with the recorded inhibition of Cc1ccccc1Nc1nc(N)nc(COC(=O)c2ccccc2)n1 only.
-4.25

Answer with the recorded inhibition of CC12CCC(=O)N1C(C(=O)N1CCN(S(=O)(=O)c3cccc(C(F)(F)F)c3)CC1)CS2 (stereo not given) only.
2.29

Answer with the recorded inhibition of Cc1ccccc1Nc1nc(N)nc(COC(=O)c2ccco2)n1 only.
10.5

Answer with the recorded inhibition of CCOC(=O)c1nn(-c2ccc(Cl)cc2)cc1O only.
47.5

Answer with the recorded inhibition of COc1ccc(NC(=O)CN(C)CC(=O)Nc2sc3c(c2C#N)CCC3)cc1 only.
-8.9

Answer with the recorded inhibition of COCCNC(=O)c1ccc(NC(=O)C2(c3ccccc3)CCCC2)cc1 only.
40.9

Answer with the recorded inhibition of Cc1sc2ncnc(SCC(=O)c3cccs3)c2c1C only.
-19.7

Answer with the recorded inhibition of CN(C)C(=O)Oc1c(Cl)cc(Cl)c2cccnc12 only.
0.5

Answer with the recorded inhibition of O=C1C(Nc2ccccc2)=C(N2CCCCC2)C(=O)c2ccccc21 only.
30.1

Answer with the recorded inhibition of Cc1c(C(=O)N2CCN(C(=O)c3ccccc3)CC2)oc2ccc(F)cc12 only.
-0.86

Answer with the recorded inhibition of CCCC(=O)NNC(=O)CC(=O)Nc1ccccc1C(=O)O only.
2.33

Answer with the recorded inhibition of CC1(c2cccc(Br)c2)NC(=O)N(CC(=O)NC2CCCCC2)C1=O (stereo not given) only.
3

Answer with the recorded inhibition of Cc1sc2c(c1C)CN(C(C)(C)C)CN2C(=O)c1ccccc1 only.
-8.66

Answer with the recorded inhibition of CC1=NN(c2ccccc2)C(=O)/C1=C/c1ccc[nH]1 only.
1.35

Answer with the recorded inhibition of COc1cc(OC)cc(OCC(O)Cn2ccnc2)c1 (stereo not given) only.
7.96

Answer with the recorded inhibition of COc1cccc(C2C3=C(N=c4s/c(=C\c5ccc(O)cc5)c(=O)n42)c2ccccc2CC3)c1OC (stereo not given) only.
65.1

Answer with the recorded inhibition of C/C(=N\Nc1cc(Cl)nc(C)n1)c1ccccc1 only.
5.34

Answer with the recorded inhibition of O=C(NCCCn1ccnc1)c1cc(-c2cccnc2)nc2ccc(Br)cc12 only.
4.38

Answer with the recorded inhibition of Cc1ccc(S(=O)(=O)N2CCC(C(=O)OCC(=O)NCCc3ccccc3)CC2)cc1C only.
1.72

Answer with the recorded inhibition of COc1ccc(/C=C2/SC(=O)N(CCNC(=O)CC(NC(C)=O)c3ccccc3)C2=O)cc1 (stereo not given) only.
-1.58

Answer with the recorded inhibition of CC(=O)NC12CC3CC(C1)CC(C(=O)Nc1nc4ccc(S(C)(=O)=O)cc4s1)(C3)C2 only.
-8.67

Answer with the recorded inhibition of Clc1ccc(-c2cn3c(n2)SCC3)cc1 only.
9.61

Answer with the recorded inhibition of O=C(Nc1ccc2oc(-c3ccc(Cl)c(Cl)c3)nc2c1)c1ncn[nH]1 only.
50.6

Answer with the recorded inhibition of COc1ccc(CCNC(=O)c2ccc([N+](=O)[O-])cc2Cl)cc1OC only.
-2.83

Answer with the recorded inhibition of O=C(NCC(c1cccs1)N1CCOCC1)c1cccc([N+](=O)[O-])c1 (stereo not given) only.
-5.61

Answer with the recorded inhibition of O=C(N/N=C/c1ccccc1)C(=O)N/N=C/c1ccccc1 only.
2.46

Answer with the recorded inhibition of O=C(CC1C(=O)NCCN1Cc1c(F)cccc1Cl)NC1CCCC1 (stereo not given) only.
-8.1

Answer with the recorded inhibition of C=CCN1CC[C@]23c4c5ccc(O)c4OC2C(=O)CC[C@@]3(O)C1C5 (stereo not given in full) only.
-3.13

Answer with the recorded inhibition of Cc1cccc(C(=O)NCc2nnc(SCC(=O)N3CCN(c4ccccc4)CC3)n2C)c1 only.
0.25

Answer with the recorded inhibition of Cc1ccc(OCc2cc(C(=O)N(C)Cc3nccn3C)no2)cc1C only.
8.06

Answer with the recorded inhibition of CCOC(=O)C1CCN(C(=S)NC(=O)c2cccs2)CC1 only.
0.89

Answer with the recorded inhibition of Cc1ccc(NC(=O)CN(C)CC(=O)Nc2sc3c(c2C(N)=O)CCC3)cc1 only.
66.6

Answer with the recorded inhibition of COc1ccc(/C=N/NC(=O)c2cccc(C(=O)N/N=C/c3ccc(OC)cc3)n2)cc1 only.
-1.47

Answer with the recorded inhibition of CN1CCN(Cc2cc(Cl)c3cccnc3c2OC(=O)c2cccs2)CC1 only.
-8.53

Answer with the recorded inhibition of COCCNC(=S)N1CCc2cc(OC)c(OC)cc2C1c1cccs1 (stereo not given) only.
-7.46

Answer with the recorded inhibition of Cc1ccc(NC2=C(N3CCCCC3)C(=O)c3ccccc3C2=O)cc1 only.
-7.72
